Numbers sourced from paper PMC10970644.

- system.name: α2β GlyR (Rattus norvegicus, UniProt P20781+P22771)
- Construct: The cells were transfected with plasmids encoding the following proteins
- Sequence (P22771 28-452): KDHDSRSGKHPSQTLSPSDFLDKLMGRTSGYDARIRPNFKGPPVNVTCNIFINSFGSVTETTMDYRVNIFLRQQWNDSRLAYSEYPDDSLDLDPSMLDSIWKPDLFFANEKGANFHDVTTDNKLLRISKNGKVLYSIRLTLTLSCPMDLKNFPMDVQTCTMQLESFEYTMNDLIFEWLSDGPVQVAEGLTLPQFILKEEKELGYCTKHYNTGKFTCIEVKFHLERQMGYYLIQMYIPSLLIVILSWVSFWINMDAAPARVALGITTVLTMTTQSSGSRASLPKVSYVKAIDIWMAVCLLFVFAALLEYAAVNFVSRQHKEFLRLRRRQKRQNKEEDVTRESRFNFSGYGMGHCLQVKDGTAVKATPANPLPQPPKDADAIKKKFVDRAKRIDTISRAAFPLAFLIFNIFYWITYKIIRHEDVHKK
- Sequence (P20781 23-496): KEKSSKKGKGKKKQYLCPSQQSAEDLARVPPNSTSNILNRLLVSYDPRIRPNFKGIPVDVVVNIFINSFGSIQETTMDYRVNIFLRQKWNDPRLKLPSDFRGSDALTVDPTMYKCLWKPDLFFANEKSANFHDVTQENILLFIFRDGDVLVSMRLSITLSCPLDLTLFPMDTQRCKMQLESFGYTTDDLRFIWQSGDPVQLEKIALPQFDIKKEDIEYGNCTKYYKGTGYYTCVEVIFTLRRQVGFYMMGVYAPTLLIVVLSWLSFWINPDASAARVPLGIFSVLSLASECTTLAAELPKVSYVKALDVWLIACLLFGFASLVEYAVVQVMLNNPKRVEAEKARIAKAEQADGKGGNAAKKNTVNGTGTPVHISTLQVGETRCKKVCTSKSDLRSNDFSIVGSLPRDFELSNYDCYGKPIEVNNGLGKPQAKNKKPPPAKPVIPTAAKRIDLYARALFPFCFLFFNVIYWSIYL
- assay.details: cell-based
- settings: calculated using the Cheng–Prussof equation
metric.name: pKi
Quick note: pKi values are minus log10 of concentrations in mol/L.

Asked: What value of pKi has been recorded for this entry: C=C[C@@]12CN(C)[C@H]3C[C@]14C(=Nc1ccccc14)[C@H]1C[C@@H]2[C@@H]3CO1
Given back: 4.24

* * *

- system.name: α3β GlyR (Rattus norvegicus, UniProt P20781+P24524)
- Construct: The cells were transfected with plasmids encoding the following proteins
- Sequence (P24524 34-464, one chain of several): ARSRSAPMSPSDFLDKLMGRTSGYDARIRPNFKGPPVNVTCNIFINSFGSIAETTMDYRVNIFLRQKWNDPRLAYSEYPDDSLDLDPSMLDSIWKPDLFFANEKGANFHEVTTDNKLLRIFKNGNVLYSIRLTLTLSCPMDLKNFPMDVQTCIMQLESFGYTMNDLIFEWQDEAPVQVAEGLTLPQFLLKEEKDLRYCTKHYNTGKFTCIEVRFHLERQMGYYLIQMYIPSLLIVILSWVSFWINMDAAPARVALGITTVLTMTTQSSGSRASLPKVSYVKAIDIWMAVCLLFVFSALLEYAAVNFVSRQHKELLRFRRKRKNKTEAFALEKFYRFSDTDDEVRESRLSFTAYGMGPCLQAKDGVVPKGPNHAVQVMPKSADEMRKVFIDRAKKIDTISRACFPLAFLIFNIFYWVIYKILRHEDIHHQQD
- assay.details: cell-based
metric.name: pIC50
Quick note: pIC50 values are minus log10 of concentrations in mol/L.

Asked: What value of pIC50 has been recorded for this entry: C=C[C@@]12CN(C)[C@H]3C[C@]14C(=Nc1ccccc14)[C@H]1C[C@@H]2[C@@H]3CO1
Given back: 4.69

* * *

- system.name: α2 GlyR (Rattus norvegicus, UniProt P22771)
- Construct: The cells were transfected with plasmids encoding the following proteins
- Sequence (P22771 28-452): as the sequence (P22771 28-452) above
- assay.details: cell-based
metric.name: pIC50
Quick note: pIC50 values are minus log10 of concentrations in mol/L.

Asked: What value of pIC50 has been recorded for this entry: C=C[C@@]12CN(C)[C@H]3C[C@]14C(=Nc1ccccc14)[C@H]1C[C@@H]2[C@@H]3CO1
Given back: 4.95
